RUN DESCRIPTION: Pharmacokinetics of KB-ND-002 compared to Cysteamine Hydrochloride and EPA in mouse plasma and brain after oral administration
Type: in vivo, male mice
CONDITION INFO: male, mouse; brain; Group 4, 112 mg/kg Cysteamine oral; read-out: time of peak concentration of Cysteamine (Tmax)
ENDPOINT NAME: Tmax (min)
State the answer as a number, implicitly in min.

Requested read-out: Tmax. Entry: NCCS
30

---

RUN DESCRIPTION: Pharmacokinetics of KB-ND-002 compared to Cysteamine Hydrochloride and EPA in mouse plasma and brain after oral administration
Format: in vivo, male mice
CONDITION INFO: male, mouse; brain; Group 5, 112 mg/kg Eicosapentanoiec acid oral; read-out: time of peak concentration of Eicosapentanoiec acid (Tmax)
ENDPOINT NAME: Tmax (h)
State the answer as a number, implicitly in h.

Requested read-out: Tmax. Entry: CC/C=C\C/C=C\C/C=C\C/C=C\C/C=C\CCCC(=O)O
1
